System: U251 CNS
methodSummary: NCI tumour cell line growth inhibition, 48 h
propertyName: TGI (µM)
Answers are plain numbers, in µM.

# substanceSmiles, number
data = [
    ("CCCCCCNC(=O)c1cnc(Cl)cn1", 23.6),
]

For every item below, please supply its TGI.
1. O=[N+]([O-])/C=C1\COCc2cc3c(cc21)OCO3
2. C/C(=N\Nc1ccc2ccccc2n1)c1ccccn1

Solution:
1: 36.5; 2: 1.48

* * *

Assign TGI to each entry below.
Test system: NCI-H23 lung
methodSummary: NCI tumour cell line growth inhibition, 48 h

Solved cases below.
# compound, result
rows = [
    ("COc1cc(/C=C2/CCS(=O)(=O)c3ccc(C)cc3C2=O)cc(OC)c1OC", "> 36.2 µM"),
    ("CN(C)c1ccc(N=Nc2ccc3nc[nH]c3c2)cc1", "> 100 µM"),
    ("CCOC(=O)/C(Cl)=C(\\C)Nc1nc2c(ccc3ccccc32)s1", "> 100 µM"),
    ("O=C(C1CCCCC1)[C@@H]1[C@]2(C(=O)NC3CCCCC32)[C@@H]2CCCN2[C@@]12C(=O)NC1CCC(Cl)CC12 (some centres undefined)", "274 µM"),
    ("c1ccc(SC(CCCCC(Sc2ccccc2)Sc2ccccc2)Sc2ccccc2)cc1", "> 100 µM"),
    ("COc1cc2c(cc1OC(=O)CC(C)O)C1C(OC2=O)C(OC(C)=O)C=C2CCN(C)[C@H]21 (some centres undefined)", "> 100 µM"),
]

State recorded TGI for all listed compounds.
1. CCCCCCCSc1nc2c(C(=O)OCC)ncn2c2ccccc12
2. COc1ccc(C2CC(c3cc(OC)c(OC)c(OC)c3)=NN2C(C)=O)cc1OCC(=O)Nc1nc2ccc(C(F)(F)F)cc2s1 (centres undefined)
3. O=C(c1ccccc1)c1ccc(COc2ccc(C(c3c(O)c4ccccc4oc3=O)c3c(O)c4ccccc4oc3=O)cc2)cc1

Solution:
1. > 100 µM
2. 33 µM
3. 37.6 µM
